Values from BindingDB's records for doi:10.1021/jm049559q

Record: IC50 reported on Integrase (Human immunodeficiency virus 1, UniProt Q7ZJM1).
Sequence (Q7ZJM1 whole entry): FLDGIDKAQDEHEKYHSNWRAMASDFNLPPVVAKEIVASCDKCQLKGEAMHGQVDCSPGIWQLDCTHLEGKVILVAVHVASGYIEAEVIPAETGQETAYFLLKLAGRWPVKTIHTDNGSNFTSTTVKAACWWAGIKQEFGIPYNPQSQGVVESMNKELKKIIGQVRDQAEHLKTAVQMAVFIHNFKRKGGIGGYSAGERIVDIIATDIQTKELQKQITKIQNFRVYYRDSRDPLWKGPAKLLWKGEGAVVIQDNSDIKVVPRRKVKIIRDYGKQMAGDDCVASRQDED
metric.name: IC50 (nM)

Some compounds with recorded IC50:
[
  {
    "smiles.structure": "O=c1c2[nH]cc[nH]c2c(=O)c2c(=O)n(Cc3ccc(OC(F)(F)F)cc3)c(=O)c12",
    "IC50 (nM)": 2040
  },
  {
    "smiles.structure": "O=c1c2[nH]cc[nH]c2c(=O)c2c(=O)n(Cc3ccc(Cl)cc3)c(=O)c12",
    "IC50 (nM)": 417
  },
  {
    "smiles.structure": "COc1cccc(Cn2c(=O)c3c(=O)c4[nH]cc[nH]c4c(=O)c3c2=O)c1OC",
    "IC50 (nM)": 427
  }
]

I = O=c1c2[nH]cc[nH]c2c(=O)c2c(=O)n(CCc3ccc4c(c3)OCO4)c(=O)c12
II = O=c1c2[nH]cc[nH]c2c(=O)c2c(=O)n(Cc3cccc(F)c3)c(=O)c12
Param metric = IC50; output whichever of I , II has the minimum value. Give the chosen item's label as your response.
II
(II: 562 nM, I: 1410 nM)
